Measured pKi by item
assay-target: Sucrase-isomaltase, intestinal (Rattus norvegicus)
Sequence (P23739 1-1013 limits assumed): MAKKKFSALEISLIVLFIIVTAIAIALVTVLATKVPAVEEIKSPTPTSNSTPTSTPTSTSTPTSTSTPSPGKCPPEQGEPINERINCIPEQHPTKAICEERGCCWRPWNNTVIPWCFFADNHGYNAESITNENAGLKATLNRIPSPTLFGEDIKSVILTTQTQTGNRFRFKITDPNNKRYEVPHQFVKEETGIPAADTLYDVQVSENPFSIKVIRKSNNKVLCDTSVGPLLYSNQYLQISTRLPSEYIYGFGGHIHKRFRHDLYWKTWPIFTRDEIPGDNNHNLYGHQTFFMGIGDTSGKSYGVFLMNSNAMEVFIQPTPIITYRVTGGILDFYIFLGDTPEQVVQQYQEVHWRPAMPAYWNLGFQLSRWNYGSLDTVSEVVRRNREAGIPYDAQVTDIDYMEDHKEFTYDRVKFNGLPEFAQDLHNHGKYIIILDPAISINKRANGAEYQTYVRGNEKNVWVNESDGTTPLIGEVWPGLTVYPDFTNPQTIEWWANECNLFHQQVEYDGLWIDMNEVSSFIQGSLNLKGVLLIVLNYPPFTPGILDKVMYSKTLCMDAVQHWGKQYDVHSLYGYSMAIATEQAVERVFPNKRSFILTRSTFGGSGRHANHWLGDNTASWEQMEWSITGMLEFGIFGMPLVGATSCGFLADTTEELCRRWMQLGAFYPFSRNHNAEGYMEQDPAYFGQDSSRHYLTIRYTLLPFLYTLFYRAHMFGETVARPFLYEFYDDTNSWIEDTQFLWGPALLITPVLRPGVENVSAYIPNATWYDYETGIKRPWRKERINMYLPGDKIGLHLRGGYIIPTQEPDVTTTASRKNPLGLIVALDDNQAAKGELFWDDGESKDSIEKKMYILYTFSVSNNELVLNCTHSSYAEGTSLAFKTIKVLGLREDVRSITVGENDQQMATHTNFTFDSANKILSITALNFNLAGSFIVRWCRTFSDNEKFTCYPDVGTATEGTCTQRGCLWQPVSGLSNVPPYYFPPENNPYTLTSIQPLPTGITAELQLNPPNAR
Sequence (P23739 1014-1841 limits assumed): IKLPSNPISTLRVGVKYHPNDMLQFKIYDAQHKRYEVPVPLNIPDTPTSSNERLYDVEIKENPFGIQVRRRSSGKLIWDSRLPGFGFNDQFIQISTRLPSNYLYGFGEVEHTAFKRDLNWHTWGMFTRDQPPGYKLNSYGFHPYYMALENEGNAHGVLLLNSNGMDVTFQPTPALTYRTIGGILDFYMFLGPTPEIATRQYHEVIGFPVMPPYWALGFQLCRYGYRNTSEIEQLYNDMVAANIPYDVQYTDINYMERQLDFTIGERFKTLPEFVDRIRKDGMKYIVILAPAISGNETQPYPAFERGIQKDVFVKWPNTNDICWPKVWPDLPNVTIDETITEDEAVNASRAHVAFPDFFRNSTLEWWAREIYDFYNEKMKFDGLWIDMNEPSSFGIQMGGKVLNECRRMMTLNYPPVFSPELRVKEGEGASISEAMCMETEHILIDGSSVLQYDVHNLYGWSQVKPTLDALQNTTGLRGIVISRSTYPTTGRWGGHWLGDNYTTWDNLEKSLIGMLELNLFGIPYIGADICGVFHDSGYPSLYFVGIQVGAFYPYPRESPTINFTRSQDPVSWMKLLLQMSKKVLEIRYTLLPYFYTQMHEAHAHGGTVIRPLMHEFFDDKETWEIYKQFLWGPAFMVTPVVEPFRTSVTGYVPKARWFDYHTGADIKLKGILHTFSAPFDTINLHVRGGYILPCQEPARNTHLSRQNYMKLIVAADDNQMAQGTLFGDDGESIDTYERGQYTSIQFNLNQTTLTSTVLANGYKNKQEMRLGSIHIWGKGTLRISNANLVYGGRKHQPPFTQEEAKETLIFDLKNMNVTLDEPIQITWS
method-summary: Binding affinity to sucrase in rat small intestinal brush border membrane vesicles assessed as inhibition constant using sucrose as substrate incubated for 30 mins by glucose-oxidase method
pKi (log units): -log10 of the concentration in mol/L.

Below, 2 compounds whose answers are already recorded.
- OC[C@@H]1[C@@H](O)[C@H](O)C[S@+]1C[C@@H](O)[C@H]1OC(c2ccccc2Cl)OC[C@H]1O (stereo partly drawn): 6.68
- OC[C@@H]1[C@@H](O)[C@H](O)C[S@+]1C[C@@H](O)[C@H]1OC(c2ccccc2F)OC[C@H]1O (stereo partly drawn): 6.62

Next:
Input: Output reported pKi of the compound OC[C@@H]1[C@@H](O)[C@H](O)C[S@+]1C[C@@H](O)[C@H]1OC(c2ccccc2C(F)(F)F)OC[C@H]1O (stereo partly drawn) on Sucrase-isomaltase, intestinal (Rattus norvegicus).
Output: 6.72
